tested on: 873145-292-R-J1-PDC complex spheroid viability; experiment: Anticancer human tumor 873145-292-R-J1-PDC patient-derived renal clear cell carcinoma cell line growth inhibition [POLQ]; conditions: second compound 0.316 µM; first compound 0.00316 µM; stronger effect = lower value
Recorded measurements of viability, T/C, one per entry
ASSAY READOUT: viability, T/C (%)

>>> value("CC[C@@]1(O)C(=O)OCc2c1cc1n(c2=O)Cc2cc3c(CN(C)C)c(O)ccc3nc2-1 + Cc1cccc(N(C)C(=O)C2C(O)CCN2c2nc(C)cc(C(F)(F)F)c2C#N)c1")
96.8
>>> value("CC[C@@]1(O)C(=O)OCc2c1cc1n(c2=O)Cc2cc3c(CN(C)C)c(O)ccc3nc2-1 + COC1C(OC(N)=O)C(O)C(Oc2ccc3c(O)c(NC(=O)c4ccc(O)c(CC=C(C)C)c4)c(=O)oc3c2C)OC1(C)C")
92.9
>>> value("COc1cccc(OCCCN)c1-c1cc(Nc2cnc(C#N)cn2)n[nH]1 + COC1C(OC(N)=O)C(O)C(Oc2ccc3c(O)c(NC(=O)c4ccc(O)c(CC=C(C)C)c4)c(=O)oc3c2C)OC1(C)C")
104

---

tested on: 873145-292-R-J1-PDC complex spheroid viability; assay: Anticancer human tumor 873145-292-R-J1-PDC cell line growth inhibition [POLQ]; conditions: curve of first compound; second compound 0.1 µM;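 further: spheroids exposed to compounds for 7 days before viability readout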
ASSAY READOUT: IC50

>>> value("COc1cc(C2c3cc4c(cc3C(OC3OC5COC(C)OC5C(O)C3O)C3COC(=O)C23)OCO4)cc(OC)c1O (stereo not given) + COC1C(OC(N)=O)C(O)C(Oc2ccc3c(O)c(NC(=O)c4ccc(O)c(CC=C(C)C)c4)c(=O)oc3c2C)OC1(C)C")
"> 10 µM"
>>> value("CCc1c2c(nc3ccc(O)cc13)-c1cc3c(c(=O)n1C2)COC(=O)[C@]3(O)CC + Cc1cccc(N(C)C(=O)C2C(O)CCN2c2nc(C)cc(C(F)(F)F)c2C#N)c1")
"0.0717 µM"
>>> value("Nc1ccn(C2OC(CO)C(O)C2(F)F)c(=O)n1 (stereo not given) + Nc1ccc(C#CCN(C(=O)Cc2ncc(C(F)(F)F)cc2C(F)(F)F)c2ccc(F)cc2)nn1")
"> 10 µM"
>>> value("C=CC(=O)N1CCN(c2nc(=O)n(-c3c(C)ccnc3C(C)C)c3nc(-c4c(O)cccc4F)c(F)cc23)C(C)C1 (stereo not given) + Cc1cccc(N(C)C(=O)C2C(O)CCN2c2nc(C)cc(C(F)(F)F)c2C#N)c1")
"> 10 µM"
>>> value("COc1cc(C2c3cc4c(cc3C(OC3OC5COC(C)OC5C(O)C3O)C3COC(=O)C23)OCO4)cc(OC)c1O (stereo not given) + Cc1cccc(N(C)C(=O)C2C(O)CCN2c2nc(C)cc(C(F)(F)F)c2C#N)c1")
"> 10 µM"

---

Tested on: 873145-292-R-J1-PDC complex spheroid viability
Test: Anticancer human tumor 873145-292-R-J1-PDC cell line growth inhibition [POLQ];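 further: spheroids exposed to compounds for 7 days before viability readout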
Details: curve of first compound; second compound 3.16 µM
Method: Multicellular complex tumor spheroid response to Polymerase (POL) inhibitors (novobiocin, ART-558, RP6685) in combination with a variety of drugs and investigational agents in selected tumor cell lines The POL inhibitors (novobiocin, ART-558, and RP6685) were evaluated both individually and in combination with standard of care and investigational anticancer small molecules within a complex spheroid model of solid tumors. . […]
pIC50: −log10 of the molar value.
ASSAY READOUT: pIC50

>>> value("CC1COCCN1c1cc(-c2ccnn2C)c2ccnc(-c3ccn[nH]3)c2n1 (stereo not given) + Cc1cccc(N(C)C(=O)C2C(O)CCN2c2nc(C)cc(C(F)(F)F)c2C#N)c1")
6.01
>>> value("CCc1c2c(nc3ccc(O)cc13)-c1cc3c(c(=O)n1C2)COC(=O)[C@]3(O)CC + Cc1cccc(N(C)C(=O)C2C(O)CCN2c2nc(C)cc(C(F)(F)F)c2C#N)c1")
7.45
>>> value("CCc1c2c(nc3ccc(O)cc13)-c1cc3c(c(=O)n1C2)COC(=O)[C@]3(O)CC + COC1C(OC(N)=O)C(O)C(Oc2ccc3c(O)c(NC(=O)c4ccc(O)c(CC=C(C)C)c4)c(=O)oc3c2C)OC1(C)C")
7.22
>>> value("COc1ccc([C@@H](O)c2cc(-c3ncnc4cc(N5CCOCC5)ccc34)c(F)cc2Cl)nn1 + Cc1cccc(N(C)C(=O)C2C(O)CCN2c2nc(C)cc(C(F)(F)F)c2C#N)c1")
5.32

---

tested on: 873145-292-R-J1-PDC complex spheroid viability; assay: Anticancer human tumor 873145-292-R-J1-PDC cell line growth inhibition [POLQ]; conditions: second compound 1 µM; first compound 0.00316 µM; stronger effect = lower value;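 further: spheroids exposed to compounds for 7 days before viability readout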;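 on viability, T/C: luminescence signal used as surrogate for viable cell content; 100% = DMSO vehicle control viability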
Catalogue of compounds with associated viability, T/C
ASSAY READOUT: viability, T/C (%)

>>> value("CCc1c2c(nc3ccc(O)cc13)-c1cc3c(c(=O)n1C2)COC(=O)[C@]3(O)CC + Nc1ccc(C#CCN(C(=O)Cc2ncc(C(F)(F)F)cc2C(F)(F)F)c2ccc(F)cc2)nn1")
99.8
>>> value("CC[C@@]1(O)C(=O)OCc2c1cc1n(c2=O)Cc2cc3c(CN(C)C)c(O)ccc3nc2-1 + Cc1cccc(N(C)C(=O)C2C(O)CCN2c2nc(C)cc(C(F)(F)F)c2C#N)c1")
87.9
>>> value("C=CCn1c(=O)c2cnc(Nc3ccc(N4CCN(C)CC4)cc3)nc2n1-c1cccc(C(C)(C)O)n1 + Nc1ccc(C#CCN(C(=O)Cc2ncc(C(F)(F)F)cc2C(F)(F)F)c2ccc(F)cc2)nn1")
93.5
>>> value("Cn1ncnc1[C@H]1c2n[nH]c(=O)c3cc(F)cc(c23)N[C@@H]1c1ccc(F)cc1 + Cc1cccc(N(C)C(=O)C2C(O)CCN2c2nc(C)cc(C(F)(F)F)c2C#N)c1")
105
>>> value("CCc1c2c(nc3ccc(O)cc13)-c1cc3c(c(=O)n1C2)COC(=O)[C@]3(O)CC + Cc1cccc(N(C)C(=O)C2C(O)CCN2c2nc(C)cc(C(F)(F)F)c2C#N)c1")
97.2
>>> value("CC[C@@]1(O)C(=O)OCc2c1cc1n(c2=O)Cc2cc3c(CN(C)C)c(O)ccc3nc2-1 + Nc1ccc(C#CCN(C(=O)Cc2ncc(C(F)(F)F)cc2C(F)(F)F)c2ccc(F)cc2)nn1")
98.6
>>> value("COc1cccc(OCCCN)c1-c1cc(Nc2cnc(C#N)cn2)n[nH]1 + Nc1ccc(C#CCN(C(=O)Cc2ncc(C(F)(F)F)cc2C(F)(F)F)c2ccc(F)cc2)nn1")
96.3
>>> value("Cn1ncnc1[C@H]1c2n[nH]c(=O)c3cc(F)cc(c23)N[C@@H]1c1ccc(F)cc1 + Nc1ccc(C#CCN(C(=O)Cc2ncc(C(F)(F)F)cc2C(F)(F)F)c2ccc(F)cc2)nn1")
96.1
>>> value("COc1cccc(OCCCN)c1-c1cc(Nc2cnc(C#N)cn2)n[nH]1 + COC1C(OC(N)=O)C(O)C(Oc2ccc3c(O)c(NC(=O)c4ccc(O)c(CC=C(C)C)c4)c(=O)oc3c2C)OC1(C)C")
97.9
>>> value("C=CCn1c(=O)c2cnc(Nc3ccc(N4CCN(C)CC4)cc3)nc2n1-c1cccc(C(C)(C)O)n1 + COC1C(OC(N)=O)C(O)C(Oc2ccc3c(O)c(NC(=O)c4ccc(O)c(CC=C(C)C)c4)c(=O)oc3c2C)OC1(C)C")
98.8
>>> value("COc1cccc(OCCCN)c1-c1cc(Nc2cnc(C#N)cn2)n[nH]1 + Cc1cccc(N(C)C(=O)C2C(O)CCN2c2nc(C)cc(C(F)(F)F)c2C#N)c1")
98.2

---

test system: 873145-292-R-J1-PDC complex spheroid viability; assay: Anticancer human tumor 873145-292-R-J1-PDC cell line growth inhibition [POLQ]; conditions: second compound 10 µM; first compound 1 µM; stronger effect = lower value;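 further: spheroids exposed to compounds for 7 days before viability readout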;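 on viability, T/C: luminescence signal used as surrogate for viable cell content; 100% = DMSO vehicle control viability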
ASSAY READOUT: viability, T/C

>>> value("O=C(Nc1ccc(O)c(NS(=O)(=O)c2ccc(F)cc2)c1)c1ccc(-c2ccccc2)cc1 + COC1C(OC(N)=O)C(O)C(Oc2ccc3c(O)c(NC(=O)c4ccc(O)c(CC=C(C)C)c4)c(=O)oc3c2C)OC1(C)C")
"100%"
>>> value("COc1ccc([C@@H](O)c2cc(-c3ncnc4cc(N5CCOCC5)ccc34)c(F)cc2Cl)nn1 + COC1C(OC(N)=O)C(O)C(Oc2ccc3c(O)c(NC(=O)c4ccc(O)c(CC=C(C)C)c4)c(=O)oc3c2C)OC1(C)C")
"70.4%"
>>> value("CCc1c2c(nc3ccc(O)cc13)-c1cc3c(c(=O)n1C2)COC(=O)[C@]3(O)CC + Nc1ccc(C#CCN(C(=O)Cc2ncc(C(F)(F)F)cc2C(F)(F)F)c2ccc(F)cc2)nn1")
"34.9%"
